assay: Pharmacokinetic determination in SD rats (plasma, LC/MS/MS)
Type: in vivo
settings: male, plasma; SD rat, iv, 1 mg/kg
For each record, write down the corresponding half-life.
Answers are plain numbers, in h.

// known answers, use as guide
compound=COC(=O)c1nn(-c2cc(Cl)c(Oc3ccc(=O)n(Cc4ccccc4)c3)c(Cl)c2)c(=O)[nH]c1=O resultunits=h measurednumber=4
compound=O=c1cnn(-c2cc(Cl)c(Oc3ccc(=O)n(Cc4ccccc4)c3)c(Cl)c2)c(=O)[nH]1 resultunits=h measurednumber=2.38

API: the following record is the query input.
Query :: State its half-life: CC(C)c1cc(Oc2c(Cl)cc(-n3nc(C#N)c(=O)[nH]c3=O)cc2Cl)n[nH]c1=O [MGL3196, reference compound]
Result :: 2.74

###

testedSystem: TRα (Homo sapiens)
Construct: Then 5 μL of 4×TRα-LBD or TRP-LBD
Sequence (P10827 163-410 isoform P10827-2 limits assumed, other chains not shown): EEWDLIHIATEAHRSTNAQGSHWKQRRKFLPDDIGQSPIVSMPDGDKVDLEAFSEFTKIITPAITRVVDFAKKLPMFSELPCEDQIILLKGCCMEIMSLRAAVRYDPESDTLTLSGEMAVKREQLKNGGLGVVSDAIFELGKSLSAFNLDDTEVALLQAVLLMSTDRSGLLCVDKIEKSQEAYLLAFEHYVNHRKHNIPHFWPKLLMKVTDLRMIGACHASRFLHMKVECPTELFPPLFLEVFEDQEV
assay: In vitro binding activity, LanthaScreen TR-FRET Thyroid Receptor alfa Coactivator Assay
settings: TRα-LBD
For each entry below, report its EC50 value.
One number for each entry, in µM.

substancesmiles=N#Cc1nn(-c2cc(Cl)c(Oc3ccc(=O)n(Cc4ccccc4)c3)c(Cl)c2)c(=O)[nH]c1=O assaymetric=EC50 resultunits=µM measurednumber=3.03

Query :: Given the compound O=c1cnn(-c2cc(Cl)c(Oc3ccc(=O)n(Cc4ccccc4)c3)c(Cl)c2)c(=O)[nH]1 , write its reported EC50.
Result :: 0.37

###

assay: Pharmacokinetic determination in SD rats (plasma, LC/MS/MS)
Format: in vivo
settings: male, plasma, po; SD rat, ig, 5 mg/kg
For each of the compounds below, state its AUC(0-t).
State the value with its unit after it.

Known AUC(0-t) results, listed for orientation:
compound="CC(C)c1cc(Oc2c(Cl)cc(-n3nc(C#N)c(=O)[nH]c3=O)cc2Cl)n[nH]c1=O [MGL3196, reference compound]" result="20700 ng·h/mL"
compound="O=c1cnn(-c2cc(Cl)c(Oc3ccc(=O)n(Cc4ccccc4)c3)c(Cl)c2)c(=O)[nH]1 [Example 29]" result="115000 ng·h/mL"

Continue with the next compound.
Query :: Provide one value: measured AUC(0-t) of COC(=O)c1nn(-c2cc(Cl)c(Oc3ccc(=O)n(Cc4ccccc4)c3)c(Cl)c2)c(=O)[nH]c1=O [Example 16]
Result :: 33600 ng·h/mL

###

For each entry below, report its pEC50 value.
testedSystem: TRα (Homo sapiens)
Construct: Then 5 μL of 4×TRα-LBD or TRP-LBD
assay: In vitro binding activity, LanthaScreen TR-FRET Thyroid Receptor alfa Coactivator Assay
settings: TRα-LBD
Numbers only, as −log10 of the molar value.

substancesmiles=Cc1ccc(Cn2cc(Oc3c(Cl)cc(-n4nc(C#N)c(=O)[nH]c4=O)cc3Cl)ccc2=O)cc1 testedsystem="TRα (Homo sapiens)" assaymetric=pEC50 measurednumber=5.52
substancesmiles=COCCn1cc(Oc2c(Cl)cc(-n3nc(C#N)c(=O)[nH]c3=O)cc2Cl)ccc1=O testedsystem="TRα (Homo sapiens)" assaymetric=pEC50 measurednumber=5.87

Moving on to another compound below.
Query :: Specify measured pEC50 for N#Cc1nn(-c2cc(Cl)c(Oc3ccc(=O)n(CC4CCOCC4)c3)c(Cl)c2)c(=O)[nH]c1=O .
Result :: 5.18

###

assay: Pharmacokinetic determination in SD rats (plasma, LC/MS/MS)
Assay type: in vivo
settings: male, plasma, po; SD rat, ig, 5 mg/kg
I'd appreciate it if you could supply half-life values for the items below.
Answers are plain numbers, in h.

Example entries begin here.
molecule="CC(C)c1cc(Oc2c(Cl)cc(-n3nc(C#N)c(=O)[nH]c3=O)cc2Cl)n[nH]c1=O [MGL3196, reference compound]" measurednumber=4.26
molecule=O=c1cnn(-c2cc(Cl)c(Oc3ccc(=O)n(Cc4ccccc4)c3)c(Cl)c2)c(=O)[nH]1 measurednumber=2.89

Please look at the following molecule next.
Query :: Give the measured half-life for COC(=O)c1nn(-c2cc(Cl)c(Oc3ccc(=O)n(Cc4ccccc4)c3)c(Cl)c2)c(=O)[nH]c1=O
Result :: 3.05
